Data provenance: PubChem BioAssay AID624404

Test system: D54 LucT luciferase reporter counterscreen, luminescence, 24 h
Experiment: reporter signal increase, D54 LucT cells – cell-based, luminescence, cherry pick, counter-screen for N-linked glycosylation inhibitor project, dose response (AID 624404)
Results filed as inconclusive are left out.
Metric: AC35

Molecule | Target system | Result
Cc1ccc(S/C=C\C(=O)c2ccccc2)cc1 | D54 LucT luciferase reporter counterscreen, luminescence, 24 h | 135 nM
Cc1ccnc2nc(C(=O)Nc3cc(Cl)ccc3N3CCOCC3)nn12 | D54 LucT luciferase reporter counterscreen, luminescence, 24 h | 155 nM
O=C(Nc1cc(Cl)ccc1N1CCOCC1)c1ccc(N2CCCC2=O)cc1 | D54 LucT luciferase reporter counterscreen, luminescence, 24 h | 212 nM
Cc1ccc(O)c(C(=O)C=Cc2ccccc2)c1 | D54 LucT luciferase reporter counterscreen, luminescence, 24 h | 8.29 nM
O=C(Nc1cccc(NC(=O)c2cccs2)c1)c1ccc([N+](=O)[O-])o1 | D54 LucT luciferase reporter counterscreen, luminescence, 24 h | 1050 nM
CCOc1ccc(C(=O)n2cc(C(=O)OC)c3ccccc32)cc1 | D54 LucT luciferase reporter counterscreen, luminescence, 24 h | 6030 nM
OCC1OC(n2ccc3c(SCc4ccccc4)ncnc32)C(O)C1O (stereo not drawn) | D54 LucT luciferase reporter counterscreen, luminescence, 24 h | 148 nM
CSc1nnc(-c2sccc2OCc2ccccc2)n1C | D54 LucT luciferase reporter counterscreen, luminescence, 24 h | 929 nM
Nc1nc(Nc2ccccc2)sc1C(=O)c1ccccc1 | D54 LucT luciferase reporter counterscreen, luminescence, 24 h | 272 nM
COc1ccc(Cl)cc1NC(=O)Nc1ccc(C(=O)N2CCCC2)cc1 | D54 LucT luciferase reporter counterscreen, luminescence, 24 h | 2950 nM
COc1cc(C(=O)NC2CCN(C)CC2)ccc1Nc1ncc2c(n1)N(C1CCCCC1)CCC(=O)N2C | D54 LucT luciferase reporter counterscreen, luminescence, 24 h | 30.5 nM
CNC(=O)c1cccn(Cc2cccc(C(F)(F)F)c2)c1=O | D54 LucT luciferase reporter counterscreen, luminescence, 24 h | 231 nM
Cc1nnc2ccc(-c3ccc(NC(=O)c4ccco4)cc3)nn12 | D54 LucT luciferase reporter counterscreen, luminescence, 24 h | 644 nM
O=C(c1ccc(CS(=O)c2ccccc2Cl)o1)N1CCN(c2ccccn2)CC1 (stereo not drawn) | D54 LucT luciferase reporter counterscreen, luminescence, 24 h | 5640 nM
OCC1OC(n2cnc3c(SCc4ccccc4)ncnc32)C(O)C1O (stereo not drawn) | D54 LucT luciferase reporter counterscreen, luminescence, 24 h | 733 nM
O=C1Cc2c(-c3ccccc3)cc(-c3cccc(Cl)c3)nc2-c2ccccc2N1 | D54 LucT luciferase reporter counterscreen, luminescence, 24 h | 5370 nM
Cc1ccc(NC(=O)C(Cc2ccccc2)N2C(=O)C3C4CCC(C4)C3C2=O)cc1Cl (stereo not drawn) | D54 LucT luciferase reporter counterscreen, luminescence, 24 h | 1680 nM
O=C(c1cccc(Oc2ccccc2)c1)N1CCN(c2ccccn2)CC1 | D54 LucT luciferase reporter counterscreen, luminescence, 24 h | 2960 nM
CCOC(=O)c1[nH]c(C)c(C(=O)Nc2cc(Cl)ccc2C)c1C | D54 LucT luciferase reporter counterscreen, luminescence, 24 h | 2240 nM
Cc1ccc(C(=O)Nc2ccc(C(=O)/C=C/c3cccs3)cc2)cc1 | D54 LucT luciferase reporter counterscreen, luminescence, 24 h | 709 nM
Cc1ccc(CC(=O)NCc2ccc(F)cc2)cc1 | D54 LucT luciferase reporter counterscreen, luminescence, 24 h | 4270 nM
Cc1ccc(-c2cc(C(=O)Nc3ccncc3)c3ccccc3n2)cc1 | D54 LucT luciferase reporter counterscreen, luminescence, 24 h | 4300 nM
Cc1ccc(-c2nc3ncccc3o2)cc1NC(=O)c1ccc([N+](=O)[O-])o1 | D54 LucT luciferase reporter counterscreen, luminescence, 24 h | 505 nM
